# protocol.text: Biodistribution experiments in normal mice after i.v. injection
# Assay type: in vivo
# condition.notes: male, ddY, mouse, in vivo, iv, total radioactivity, Biodistribution of radioactivity, Muscle
# Experimental: Experiments with animals were conducted in strict accordance with the Guidelines for the Care and Use of Laboratory Animals of Kanazawa University. […] Complete left femurs were isolated as representative bone samples, radioactivity was determined using gamma counters (AccuFLEX γ ARC-8001 in the case of ^18F, Hitachi, Ltd.), and background counts and physical decay were corrected during counting.
Where a SMILES comes first, the peptide text is derived from it. [ ]: non-standard residue; d: D form. The star is where a group is joined. DOTA = O=C(O)CN1CCN(CC(=O)O)CCN(CC(=O)*)CCN(CC(=O)O)CC1
// tissue uptake dose at 10 min lookup, one value per entry
// note: answer is a bare numeric in %ID

Known results for compounds:
O=C(O)C[C@@H](NC(=O)[C@@H](CC(=O)O)NC(=O)CN1CCN(CC(=O)O)CCN(CC(=O)O)CCN(CC(=O)O)CC1)C(=O)O [^67Ga-DOTA-(D-Asp)2, metal not drawn] ({DOTA}-[dD]-[dD]-OH)    0.53
O=C(O)C[C@@H](NC(=O)[C@@H](CC(=O)O)NC(=O)[C@@H](CC(=O)O)NC(=O)[C@@H](CC(=O)O)NC(=O)[C@@H](CC(=O)O)NC(=O)[C@@H](CC(=O)O)NC(=O)[C@@H](CC(=O)O)NC(=O)[C@@H](CC(=O)O)NC(=O)CN1CCN(CC(=O)O)CCN(CC(=O)O)CCN(CC(=O)O)CC1)C(=O)O [^67Ga-DOTA-(D-Asp)8, metal not drawn] ({DOTA}-[dD][dD][dD][dD][dD][dD][dD][dD]-OH)    0.57

Moving on to the next compound.
Kindly note the recorded tissue uptake dose at 10 min for O=C(O)CC[C@H](NC(=O)[C@H](CCC(=O)O)NC(=O)[C@H](CCC(=O)O)NC(=O)[C@H](CCC(=O)O)NC(=O)[C@H](CCC(=O)O)NC(=O)[C@H](CCC(=O)O)NC(=O)[C@H](CCC(=O)O)NC(=O)[C@H](CCC(=O)O)NC(=O)[C@H](CCC(=O)O)NC(=O)[C@H](CCC(=O)O)NC(=O)[C@H](CCC(=O)O)NC(=O)[C@H](CCC(=O)O)NC(=O)[C@H](CCC(=O)O)NC(=O)[C@H](CCC(=O)O)NC(=O)CN1CCN(CC(=O)O)CCN(CC(=O)O)CCN(CC(=O)O)CC1)C(=O)O [^67Ga-DOTA-(L-Glu)14, metal not drawn] , which is 0.63
